Listed next: entries and their corresponding solubility.
Experiment: Solubility in biorelevant fasted state simulated intestinal fluid (FaSSIF)
Assay type: physicochemical
Conditions: 25 °C, fassif, kinetic from dmso stock, Solubility
Provide only the numeric value, understood in µM.

COMPOUND	solubility [µM]
Cc1cc(Nc2cc(C(F)F)ccn2)nc(-c2ccc([C@](C)(O)[C@H]3CC[C@H](C(=O)OCC4CCNCC4)CC3)nc2)c1 [Example 1-21]	167
Cc1cc(Nc2cc(C(F)F)ccn2)nc(-c2ccc([C@](C)(O)[C@H]3CC[C@H](C(=O)OCOC(=O)OCCCCCCN(C)C)CC3)nc2)c1 [Example 2-7]	119

Now consider the entry below.
IN: Which measured solubility value corresponds to Cc1cc(Nc2cc(C(F)F)ccn2)nc(-c2ccc([C@](C)(O)[C@H]3CC[C@H](C(=O)OC[C@H]4COC(C)(C)O4)CC3)nc2)c1 [Example 1-14] ?
OUT: 109
